# Target Entity: UniProt:Q9NWZ3
# Protocol Text: IRAK-4 ELISA, PBMC degradation
# Type: cell-based
# Design: endogenous in cells; host or cells: PBMC
# Test Context: treated overnight
Value Type: DC50

Please indicate DC50 recorded for O=C1CCC(N2C(=O)c3ccc(N4CC(CN5CCC(n6cc7cc(NC(=O)c8cnn9cccnc89)c(OCC(F)F)cc7n6)CC5)C4)cc3C2=O)C(=O)N1 (stereo not shown) [Example 235]
< 1 nM

Please indicate DC50 recorded for CC(C)Oc1cc2c(cc1NC(=O)c1cnn3cccnc13)CN(C[C@@H](F)C1CCN(CC3CCN(c4ccc5c(c4)C(=O)N(C4CCC(=O)NC4=O)C5=O)CC3)CC1)C2=O (stereo partly shown) [Example 18]
< 1 nM

Please indicate DC50 recorded for O=C1CCC(N2C(=O)c3ccc(N4CCC[C@H](CN5CCC(n6cc7cc(NC(=O)c8cnn9cccnc89)c(OCC8CC8)cc7n6)CC5)C4)cc3C2=O)C(=O)N1 (stereo partly shown) [Example 174]
1 to 5 nM

Please indicate DC50 recorded for CC(C)Oc1cc2c(cc1NC(=O)c1cnn3cccnc13)CN([C@H]1CC[C@@H](N3CC4(CN(c5ccc6c(c5)C(=O)N(C5CCC(=O)NC5=O)C6=O)C4)C3)CC1)C2=O (stereo partly shown) [Example 69]
1 to 5 nM

---

# Target Entity: IRAK-4 (Homo sapiens)
# Sequence (Q9NWZ3 1-460): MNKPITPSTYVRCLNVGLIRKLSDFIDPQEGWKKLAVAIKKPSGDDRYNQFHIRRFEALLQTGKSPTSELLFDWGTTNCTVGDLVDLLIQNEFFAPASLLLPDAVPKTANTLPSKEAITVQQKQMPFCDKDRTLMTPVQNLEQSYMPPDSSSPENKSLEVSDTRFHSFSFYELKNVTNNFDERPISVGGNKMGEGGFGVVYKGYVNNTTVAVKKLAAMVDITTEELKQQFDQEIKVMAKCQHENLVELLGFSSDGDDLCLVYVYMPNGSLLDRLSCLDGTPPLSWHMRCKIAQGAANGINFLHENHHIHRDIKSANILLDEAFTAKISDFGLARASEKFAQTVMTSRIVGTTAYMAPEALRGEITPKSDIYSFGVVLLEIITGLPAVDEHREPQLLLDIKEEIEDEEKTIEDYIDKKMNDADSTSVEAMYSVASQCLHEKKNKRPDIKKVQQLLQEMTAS
# Protocol Text: IRAK-4 ELISA, PBMC degradation
# Type: cell-based
# Set-up: endogenous in cells; host or cells: PBMC
# Test Context: treated overnight
Value Type: DC50

Please indicate DC50 recorded for CC1(CN2CCC(n3cc4cc(NC(=O)c5cnn6cccnc56)c(OCC5CC5)cc4n3)CC2)CN(c2cc3c(cc2F)C(=O)N(C2CCC(=O)NC2=O)C3=O)C1 (stereo not drawn)
≥ 10 nM

Please indicate DC50 recorded for O=C1CCC(N2C(=O)c3ccc(N4CCN(CCOC[C@H](F)CN5Cc6cc(NC(=O)c7cnn8cccnc78)c(N7CCOCC7)cc6C5=O)CC4)cc3C2=O)C(=O)N1 (stereo partly drawn)
1 to 5 nM

Please indicate DC50 recorded for CN([C@H]1CC[C@H](n2cc3cc(NC(=O)c4cnn5cccnc45)c(OCC4CC4)cc3n2)CC1)[C@H]1C[C@H](Oc2ccc3c(c2)C(=O)N(C2CCC(=O)NC2=O)C3=O)C1 (stereo partly drawn)
< 1 nM

Please indicate DC50 recorded for CC(C)Oc1cc2c(cc1NC(=O)c1cnn3cccnc13)CN(C1CCN(CC3CCN(c4cc5c(cc4F)C(=O)N(C4CCC(=O)NC4=O)C5=O)CC3)CC1)C2=O (stereo not drawn)
< 1 nM

Please indicate DC50 recorded for O=C1CCC(N2C(=O)c3ccc(N4CC(O[C@H]5CC[C@H](n6cc7cc(NC(=O)c8cnn9cccnc89)c(OCC8CC8)cc7n6)CC5)C4)cc3C2=O)C(=O)N1 (stereo partly drawn)
1 to 5 nM

Please indicate DC50 recorded for O=C1CCC(N2C(=O)c3ccc(N4CCC5(CC4)CC(CN4CCC(n6cc7cc(NC(=O)c8cnn9cccnc89)c(OCC8CC8)cc7n6)CC4)C5)cc3C2=O)C(=O)N1 (stereo not drawn)
1 to 5 nM

Please indicate DC50 recorded for COc1cc2nn(C3CCN(CC4(F)CN(c5ccc6c(c5)C(=O)N(C5CCC(=O)NC5=O)C6=O)C4)CC3)cc2cc1NC(=O)c1cnn2ccc(N3CCOCC3)nc12 (stereo not drawn)
< 1 nM

Please indicate DC50 recorded for O=C1CCC(N2C(=O)c3ccc(N4CCC[C@@H](CN5CCC(n6cc7cc(NC(=O)c8cnn9cccnc89)c(OCC8CC8)cc7n6)CC5)C4)cc3C2=O)C(=O)N1 (stereo partly drawn)
1 to 5 nM

Please indicate DC50 recorded for O=C1CCC(N2C(=O)c3ccc(N4CCC(CN5CCC(N6Cc7cc(NC(=O)c8cnn9cccnc89)c(N8CCN(C9CC(F)(F)C9)CC8)cc7C6=O)CC5)CC4)cc3C2=O)C(=O)N1 (stereo not drawn)
1 to 5 nM
